Can you tell me % Max Response, INSL3 (EC80)-stimulated cAMP in HEK293 stably expressing rat RXFP2 for the items I'm about to list?
Target: rat relaxin family peptide receptor 2 (RXFP2) (rat) (UniProt Q5ECL0)
Sequence (Q5ECL0 entry or part of it): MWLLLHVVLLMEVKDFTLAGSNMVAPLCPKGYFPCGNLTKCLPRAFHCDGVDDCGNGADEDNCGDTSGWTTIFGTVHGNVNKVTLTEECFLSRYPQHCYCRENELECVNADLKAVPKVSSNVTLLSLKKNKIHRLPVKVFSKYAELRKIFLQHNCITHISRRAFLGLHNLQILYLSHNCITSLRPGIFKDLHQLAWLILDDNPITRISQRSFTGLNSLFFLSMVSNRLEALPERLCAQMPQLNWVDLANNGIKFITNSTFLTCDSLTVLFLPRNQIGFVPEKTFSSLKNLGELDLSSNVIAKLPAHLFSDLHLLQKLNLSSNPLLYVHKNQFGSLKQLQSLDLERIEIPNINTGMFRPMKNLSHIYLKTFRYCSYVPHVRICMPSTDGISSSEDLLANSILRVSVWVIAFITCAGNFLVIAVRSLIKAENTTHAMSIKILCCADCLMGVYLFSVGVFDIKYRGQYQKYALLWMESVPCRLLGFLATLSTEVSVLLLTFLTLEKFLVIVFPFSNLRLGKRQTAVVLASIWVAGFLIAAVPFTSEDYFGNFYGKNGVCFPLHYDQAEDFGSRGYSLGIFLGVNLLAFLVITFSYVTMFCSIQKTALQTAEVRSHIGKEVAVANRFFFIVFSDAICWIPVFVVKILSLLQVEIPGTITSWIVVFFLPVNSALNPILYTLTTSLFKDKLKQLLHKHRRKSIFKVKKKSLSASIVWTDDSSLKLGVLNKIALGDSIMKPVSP
State the answer as a number, implicitly in %.

query: Returns the measured % Max Response, INSL3 (EC80)-stimulated cAMP in HEK293 stably expressing rat RXFP2 for the input binder. Input: RXFP2 mAb 4B8 (antibody, V domains shown) VH: QVQLKQSGPGLVQPSQSLSITCTVSGFSLSRYGVHWVRQSPGKGLEWLGVIWSGGSTEYNAVFKSRLSISKDNSKSQVFFKMNSLQANDTAIYYCVRADGYYAMEYWGQGTSVTVSS VL: DIQMTQSPASLSVSVGETVTITCRASENIYSNLAWYQQKQGKSPQLLVYAVTNLADGVPSRFSGSGSGTQYSLKINSLQSEDFGNYYCQHFWGTPYTFGGGTKLEIK
result: 86.6

query: Returns the measured % Max Response, INSL3 (EC80)-stimulated cAMP in HEK293 stably expressing rat RXFP2 for the input binder. Input: RXFP2 mAb 4H1 (antibody, V domains shown) VH: QIQLVQSGPELKKPGETVKISCKTSGYTFTKYPMHWVKQAPGEGLKWMGWINTYSGLPTFADDFKGRFAFSLETSANTADLQINNLKNEDMATYFCAREGKKLSGYFDYWGQGTTLTVSS VL: DIKMTQSPSSMYASLGERVTITCKASQDINSYLTWFQQKPGQSPKTLIYRANRFVDGVPSRFSGSGSGQDYSLTITSLEYEDMGIYYCLQYDEFPYTFGGGTQLEIK
result: 69.7

Cited source: paper PMC11162469
